MEASURED_ON: CYP1A2 (Homo sapiens)
Construct: tissue Corning Gentest BD UltraPool HLM 150; host or cells: pooled human liver microsomes
ASSAY_SUMMARY: CYP inhibition, cocktail of probe substrates in pooled human liver microsomes: phenacetin O-deethylation
Assay type: in vitro ADME
PARTICULARS: pooled HLMs, substrate 80 μM, 15 min preincubation with NADPH, read-out: IC50 With preincubation with NADPH
MEASUREMENT_LABEL: pIC50
Interpret pIC50 as the negative base-10 log of the concentration measured in mol/L.

I'd like to know its pIC50. The compound in question is O=c1ccc2c(ccc3ccoc32)o1
6.66

====

MEASURED_ON: CYP2B6 (Homo sapiens)
Construct: tissue Corning Gentest BD UltraPool HLM 150; host or cells: pooled human liver microsomes
ASSAY_SUMMARY: CYP inhibition, cocktail of probe substrates in pooled human liver microsomes: bupropion hydroxylation
Type: in vitro ADME
PARTICULARS: pooled HLMs, substrate 50 μM, without preincubation, read-out: IC50 Without preincubation
MEASUREMENT_LABEL: pIC50
To interpret pIC50, take it as minus log10 of a concentration measured in moles per litre.

Tell me the measured pIC50 of O=c1ccc2c(ccc3ccoc32)o1 , please.
4.85

====

MEASURED_ON: CYP2C8 (Homo sapiens, UniProt P10632)
Construct: each reaction was performed with 0.5 mg/mL pooled human liver microsomes; tissue Corning Gentest BD UltraPool HLM 150; host or cells: pooled human liver microsomes
Sequence (P10632 whole entry): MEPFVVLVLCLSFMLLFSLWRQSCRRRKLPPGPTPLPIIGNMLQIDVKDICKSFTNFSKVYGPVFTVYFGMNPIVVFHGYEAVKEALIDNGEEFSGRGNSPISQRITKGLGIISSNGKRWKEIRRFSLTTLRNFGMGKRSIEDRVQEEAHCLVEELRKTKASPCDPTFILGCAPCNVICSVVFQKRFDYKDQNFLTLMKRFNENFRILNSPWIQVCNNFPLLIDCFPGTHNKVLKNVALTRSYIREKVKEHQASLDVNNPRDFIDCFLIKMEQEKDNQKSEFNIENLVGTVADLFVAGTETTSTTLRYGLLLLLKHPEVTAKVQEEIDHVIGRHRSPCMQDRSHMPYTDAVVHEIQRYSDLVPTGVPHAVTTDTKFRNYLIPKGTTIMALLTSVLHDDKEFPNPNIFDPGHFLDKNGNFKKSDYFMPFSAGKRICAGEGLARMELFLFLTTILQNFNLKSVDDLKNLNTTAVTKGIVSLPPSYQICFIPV
ASSAY_SUMMARY: CYP inhibition, cocktail of probe substrates in pooled human liver microsomes: paclitaxel hydroxylation
Format: in vitro ADME
PARTICULARS: pooled HLMs, substrate 10 μM, without preincubation, read-out: IC50 Without preincubation
MEASUREMENT_LABEL: IC50

Fill blank: measured IC50 of the compound O=c1ccc2c(ccc3ccoc32)o1 [Bakuchicin] is ____.
> 100 µM

====

MEASURED_ON: CYP2B6 (Homo sapiens, UniProt P20813)
Construct: tissue Corning Gentest BD UltraPool HLM 150; host or cells: pooled human liver microsomes
Sequence (P20813 whole entry): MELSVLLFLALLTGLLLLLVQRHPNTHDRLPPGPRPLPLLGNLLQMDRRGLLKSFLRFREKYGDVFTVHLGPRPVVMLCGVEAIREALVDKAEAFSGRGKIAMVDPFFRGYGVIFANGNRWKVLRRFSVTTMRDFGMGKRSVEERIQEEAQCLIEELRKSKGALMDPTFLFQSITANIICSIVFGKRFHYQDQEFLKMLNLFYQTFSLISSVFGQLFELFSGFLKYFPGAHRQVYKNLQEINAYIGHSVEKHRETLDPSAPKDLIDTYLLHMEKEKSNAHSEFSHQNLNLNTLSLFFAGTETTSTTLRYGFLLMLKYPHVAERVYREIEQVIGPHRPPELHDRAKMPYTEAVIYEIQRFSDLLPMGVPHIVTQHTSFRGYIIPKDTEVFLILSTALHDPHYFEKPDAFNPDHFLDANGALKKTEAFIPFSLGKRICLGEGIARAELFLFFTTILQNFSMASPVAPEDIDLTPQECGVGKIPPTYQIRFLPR
ASSAY_SUMMARY: CYP inhibition, cocktail of probe substrates in pooled human liver microsomes: bupropion hydroxylation
Type: in vitro ADME
PARTICULARS: pooled HLMs, substrate 50 μM, 15 min preincubation without NADPH, read-out: IC50 With preincubation Without NADPH
Method: All incubations were performed in duplicate, and data are presented as means. Briefly, each reaction was performed with 0.5 mg/mL pooled human liver microsomes in a final incubation volume of 0.1 mL. The incubation medium consisted of 0.1 M potassium phosphate buffer (pH 7.4) containing cocktail of probe substrates and a NADPH-generating system (NGS) of 0.1 M glucose 6-phosphate, 10 mg/mL β-NADPH, and 1.0 U/mL glucose-6-phosphate dehydrogenase. […]
MEASUREMENT_LABEL: IC50 (µM)
Your answer should be a plain number; it is taken to be in µM.

Which IC50 value is on record for O=c1ccc2c(ccc3ccoc32)o1 ?
16.4

====

MEASURED_ON: human recombinant cDNA-expressed CYP1A2 (Homo sapiens, UniProt P05177)
ASSAY_SUMMARY: Inhibition of phenacetin O-deethylation by human recombinant cDNA-expressed CYP1A2
PARTICULARS: recombinant CYP1A2, 80 μM phenacetin, 60 min; read-out: IC50, CYP1A2-catalyzed phenacetin O-deethylase activity
Procedure: To confirm the selective inhibition of CYP1A by bakuchicin, 10 pmol of human recombinant cDNA-expressed CYP1A1 and CYP1A2 was incubated with bakuchicin at 0.1–50 μM and NGS for 60 min at 37°C after the addition of 80 μM phenacetin as a selective CYP1A substrate. Those were terminated by adding 100 μL acetonitrile containing 0.1% formic acid and 2.5 μL of internal standard solution (5 μM reserpine) in methanol. […]
MEASUREMENT_LABEL: IC50 (nM)
Please respond with the number in nM and leave the unit unwritten.

What does the record list as IC50 for O=c1ccc2c(ccc3ccoc32)o1 ?
1400

====

MEASURED_ON: CYP2E1 (Homo sapiens, UniProt P05181)
Construct: tissue Corning Gentest BD UltraPool HLM 150; host or cells: pooled human liver microsomes
Sequence (P05181 whole entry): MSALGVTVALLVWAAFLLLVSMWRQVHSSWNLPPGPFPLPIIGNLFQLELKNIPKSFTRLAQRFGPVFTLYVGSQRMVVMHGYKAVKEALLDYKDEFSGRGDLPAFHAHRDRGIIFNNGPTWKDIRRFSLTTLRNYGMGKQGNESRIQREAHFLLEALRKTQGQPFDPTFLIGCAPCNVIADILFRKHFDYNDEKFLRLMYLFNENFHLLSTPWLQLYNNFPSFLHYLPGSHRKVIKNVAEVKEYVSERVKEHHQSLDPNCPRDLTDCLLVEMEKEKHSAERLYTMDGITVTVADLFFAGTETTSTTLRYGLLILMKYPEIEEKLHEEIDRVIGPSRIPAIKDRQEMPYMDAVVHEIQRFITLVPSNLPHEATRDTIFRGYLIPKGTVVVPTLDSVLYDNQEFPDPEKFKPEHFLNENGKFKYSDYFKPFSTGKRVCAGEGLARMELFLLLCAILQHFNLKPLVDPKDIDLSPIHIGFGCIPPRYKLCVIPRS
ASSAY_SUMMARY: CYP inhibition, cocktail of probe substrates in pooled human liver microsomes: chlorzoxazone 6-hydroxylation
Type: in vitro ADME
PARTICULARS: pooled HLMs, substrate 50 μM, 15 min preincubation with NADPH, read-out: IC50 With preincubation with NADPH
pIC50: −log10 of the molar value.
MEASUREMENT_LABEL: pIC50

// lookup pIC50 | system=CYP2E1 (Homo sapiens, UniProt P05181) | key= O=c1ccc2c(ccc3ccoc32)o1
< 4.00

====

MEASURED_ON: human recombinant cDNA-expressed CYP1A1 (Homo sapiens, UniProt P04798)
Construct: purchased Corning Gentest (Woburn, MA)
Sequence (P04798 whole entry): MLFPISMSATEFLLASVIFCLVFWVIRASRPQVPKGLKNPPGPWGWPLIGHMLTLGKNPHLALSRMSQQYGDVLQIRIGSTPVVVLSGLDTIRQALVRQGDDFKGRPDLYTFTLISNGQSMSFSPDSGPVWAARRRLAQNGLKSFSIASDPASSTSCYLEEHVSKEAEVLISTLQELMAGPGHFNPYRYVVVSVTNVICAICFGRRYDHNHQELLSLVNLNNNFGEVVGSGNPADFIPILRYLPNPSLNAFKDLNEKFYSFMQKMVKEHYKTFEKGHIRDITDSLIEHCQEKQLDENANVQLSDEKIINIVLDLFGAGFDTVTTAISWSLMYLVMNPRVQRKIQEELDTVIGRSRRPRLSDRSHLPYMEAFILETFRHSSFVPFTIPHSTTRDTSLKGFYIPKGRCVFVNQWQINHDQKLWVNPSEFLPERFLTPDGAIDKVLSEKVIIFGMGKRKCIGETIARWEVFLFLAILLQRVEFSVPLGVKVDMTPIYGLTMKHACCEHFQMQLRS
ASSAY_SUMMARY: Inhibition of phenacetin O-deethylation by human recombinant cDNA-expressed CYP1A1
Assay type: biochemical
PARTICULARS: recombinant CYP1A1, phenacetin 20, 40, 80 μM, 60 min; read-out: Ki on CYP1A1 (secondary plot)
MEASUREMENT_LABEL: Ki (nM)
Your answer is read as nM, so omit the unit and give the number.

Field: Ki (human recombinant cDNA-expressed CYP1A1 (Homo sapiens, UniProt P04798)). Entry: O=c1ccc2c(ccc3ccoc32)o1
110

====

MEASURED_ON: CYP1A2 (Homo sapiens)
Construct: tissue Corning Gentest BD UltraPool HLM 150; host or cells: pooled human liver microsomes
Sequence (P05177 1-516): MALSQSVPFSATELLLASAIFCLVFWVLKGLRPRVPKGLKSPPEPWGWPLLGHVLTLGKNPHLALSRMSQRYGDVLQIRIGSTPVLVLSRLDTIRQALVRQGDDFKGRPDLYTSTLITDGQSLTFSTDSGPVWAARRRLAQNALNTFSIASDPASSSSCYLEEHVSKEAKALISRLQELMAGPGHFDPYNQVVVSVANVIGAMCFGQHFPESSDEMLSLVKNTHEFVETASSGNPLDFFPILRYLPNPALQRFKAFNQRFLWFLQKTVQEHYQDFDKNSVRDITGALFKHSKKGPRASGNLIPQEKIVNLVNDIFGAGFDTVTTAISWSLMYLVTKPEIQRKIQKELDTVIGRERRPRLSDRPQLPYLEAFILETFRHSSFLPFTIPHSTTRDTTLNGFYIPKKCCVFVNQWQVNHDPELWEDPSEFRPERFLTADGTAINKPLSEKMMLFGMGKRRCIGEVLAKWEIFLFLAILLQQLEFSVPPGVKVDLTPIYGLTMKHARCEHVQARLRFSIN
ASSAY_SUMMARY: CYP inhibition, cocktail of probe substrates in pooled human liver microsomes: phenacetin O-deethylation
Assay type: in vitro ADME
PARTICULARS: pooled HLMs, substrate 80 μM, 15 min preincubation without NADPH, read-out: IC50 With preincubation Without NADPH
MEASUREMENT_LABEL: IC50 (nM)
Respond with the bare value in nM.

For the molecule shown here, O=c1ccc2c(ccc3ccoc32)o1 [Bakuchicin] , give the reported IC50.
220

====

MEASURED_ON: CYP2E1 (Homo sapiens)
Construct: tissue Corning Gentest BD UltraPool HLM 150; host or cells: pooled human liver microsomes
ASSAY_SUMMARY: CYP inhibition, cocktail of probe substrates in pooled human liver microsomes: chlorzoxazone 6-hydroxylation
Assay type: in vitro ADME
PARTICULARS: pooled HLMs, substrate 50 μM, without preincubation, read-out: IC50 Without preincubation
pIC50: −log10 of the molar value.
MEASUREMENT_LABEL: pIC50

Which pIC50 value is on record for O=c1ccc2c(ccc3ccoc32)o1 ?
< 4.00

====

MEASURED_ON: CYP2C19 (Homo sapiens, UniProt P33261)
Construct: tissue Corning Gentest BD UltraPool HLM 150; host or cells: pooled human liver microsomes
Sequence (P33261 whole entry): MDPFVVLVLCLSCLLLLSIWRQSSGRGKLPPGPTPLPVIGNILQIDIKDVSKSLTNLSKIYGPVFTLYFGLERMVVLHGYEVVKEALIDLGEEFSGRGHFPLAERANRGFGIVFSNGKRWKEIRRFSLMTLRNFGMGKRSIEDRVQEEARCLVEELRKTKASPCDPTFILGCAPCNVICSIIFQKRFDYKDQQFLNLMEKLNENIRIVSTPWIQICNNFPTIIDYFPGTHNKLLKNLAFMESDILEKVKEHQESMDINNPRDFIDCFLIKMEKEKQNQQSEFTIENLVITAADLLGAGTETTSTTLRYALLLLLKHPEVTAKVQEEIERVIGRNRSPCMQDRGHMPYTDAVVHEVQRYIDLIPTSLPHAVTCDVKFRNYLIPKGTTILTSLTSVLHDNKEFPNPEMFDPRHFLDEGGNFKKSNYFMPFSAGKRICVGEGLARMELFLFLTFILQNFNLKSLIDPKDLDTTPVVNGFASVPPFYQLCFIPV
ASSAY_SUMMARY: CYP inhibition, cocktail of probe substrates in pooled human liver microsomes: omeprazole 5-hydroxylation
Type: in vitro ADME
PARTICULARS: pooled HLMs, substrate 20 μM, 15 min preincubation with NADPH, read-out: IC50 With preincubation with NADPH
Experimental: All incubations were performed in duplicate, and data are presented as means. Briefly, each reaction was performed with 0.5 mg/mL pooled human liver microsomes in a final incubation volume of 0.1 mL. The incubation medium consisted of 0.1 M potassium phosphate buffer (pH 7.4) containing cocktail of probe substrates and a NADPH-generating system (NGS) of 0.1 M glucose 6-phosphate, 10 mg/mL β-NADPH, and 1.0 U/mL glucose-6-phosphate dehydrogenase. […]
MEASUREMENT_LABEL: IC50

Value lookup for IC50; key = O=c1ccc2c(ccc3ccoc32)o1
> 100 µM

====

MEASURED_ON: CYP2C19 (Homo sapiens)
Construct: tissue Corning Gentest BD UltraPool HLM 150; host or cells: pooled human liver microsomes
ASSAY_SUMMARY: CYP inhibition, cocktail of probe substrates in pooled human liver microsomes: omeprazole 5-hydroxylation
Type: in vitro ADME
PARTICULARS: pooled HLMs, substrate 20 μM, without preincubation, read-out: IC50 Without preincubation
MEASUREMENT_LABEL: IC50

Please give the measured IC50 for this molecule: O=c1ccc2c(ccc3ccoc32)o1 [Bakuchicin]
> 100 µM
